- Target or system: SARS-CoV-2 M^pro (Severe acute respiratory syndrome coronavirus 2)
- Protocol notes: biochemical
- Assay type: biochemical
Bridge positions count the residues as written; N and C are the ends. Square brackets hold non-standard residues; d marks the D form. Peptide text beside a SMILES is read from it.
Quantity: inhibition at 50.1 µM (%)
Use % as the unit, but write only the number.

// below: answered compounds
* CC(C)C[C@@H]1NC(=O)[C@H](CC(N)=O)NC(=O)[C@H](CC(C)C)NC(=O)[C@H](CC(N)=O)NC(=O)[C@H](Cc2c[nH]cn2)NC(=O)[C@H](Cc2ccccc2)NC(=O)[C@@H](Cc2ccc(O)cc2)NC(=O)CSC[C@H](C(N)=O)NC(=O)CNC(=O)[C@@H]2CCCN2C(=O)[C@H](CCCNC(=N)N)NC(=O)[C@H](Cc2ccc(O)cc2)NC(=O)CNC1=O [GM4γ^14N] ({CH2CO}-[dY]FHNLNLGYRPG[dC]-NH2; thioether N-13) | 100
* CC(C)C[C@@H]1NC(=O)[C@H](C)NC(=O)[C@H](Cc2c[nH]cn2)NC(=O)[C@H](Cc2ccccc2)NC(=O)[C@@H](Cc2ccc(O)cc2)NC(=O)CSC[C@H](C(N)=O)NC(=O)CNC(=O)[C@@H]2CCCN2C(=O)[C@H](CCCNC(=N)N)NC(=O)[C@H](Cc2ccc(O)cc2)NC(=O)CNC(=O)[C@H](CC(C)C)NC(=O)[C@H](CC(N)=O)NC1=O [GM4γ^14A] ({CH2CO}-[dY]FHALNLGYRPG[dC]-NH2; thioether N-13) | 100

In plain terms, CC[C@H](C)[C@@H]1NC(=O)[C@H](Cc2ccc(O)cc2)NC(=O)[C@H](CC(C)C)NC(=O)[C@H](CC(=O)O)NC(=O)[C@H](CCCNC(=N)N)NC(=O)[C@H](Cc2ccccc2)NC(=O)[C@H](C)NC(=O)[C@H](Cc2c[nH]cn2)NC(=O)[C@H](Cc2ccccc2)NC(=O)[C@@H](Cc2ccc(O)cc2)NC(=O)CSC[C@H](C(N)=O)NC(=O)CNC(=O)[C@H](CC(C)C)NC1=O [GM5γ^24A] ({CH2CO}-[dY]FHAFRDLYILG[dC]-NH2; thioether N-13) has a documented inhibition at 50.1 µM of 100
